target: UniProt:Q13822; test: Inhibition of ATX (unknown origin) using lysophosphatidyl choline as substrate
Measurement Kind: pIC50
Kindly note that pIC50 refers to -log10 of the concentration in mol/L and answer with the value alone.

Problem: Which pIC50 is reported with UniProt:Q13822 for this entry: `Cc1c(Sc2cccc(C(=O)O)c2F)c2ccc(Cl)c(F)c2n1CC(=O)N1CC2(CC2)c2ccccc21` ?
Result: 8.70

----------
biological target: Autotaxin (Homo sapiens); test: Inhibition of recombinant human ATX using bisP-nitrophenyl phosphate as substrate measured after 30 mins
Field: class. Source value: IC50. Ranges: lo: < 80 nM; mid: ≥ 80 nM and < 300 nM; hi: ≥ 300 nM

Problem: Assign a category based on measured IC50 for `Cc1c(Sc2cccc(C(=O)O)c2)c2ccccc2n1-c1ccccc1` and give only the class name.
Result: hi

Problem: Assign a category based on measured IC50 for `Cc1ccc2c(Sc3cccc(C(=O)O)n3)c(C)n(-c3cnn(C)c3)c2c1` and give only the class name.
Result: mid

Problem: Assign a category based on measured IC50 for `Cc1c(Sc2cccc(C(=O)O)n2)c2ccc(Cl)cc2n1C1CCCC1` and give only the class name.
Result: hi

Problem: Assign a category based on measured IC50 for `COc1ccc2c(Sc3cccc(C(=O)O)n3)c(C)n(-c3cnn(C)c3)c2c1` and give only the class name.
Result: lo

Problem: Assign a category based on measured IC50 for `Cc1c(Cc2cccc(C(=O)O)c2)c2ccc(Cl)cc2n1-c1cnn(C)c1` and give only the class name.
Result: lo

Problem: Assign a category based on measured IC50 for `Cc1c(Oc2cccc(C(=O)O)c2)c2ccc(Cl)cc2n1-c1cnn(C)c1` and give only the class name.
Result: mid

Problem: Assign a category based on measured IC50 for `Cc1c(Sc2cccc(C(=O)O)n2)c2ccccc2n1-c1cnn(C)c1` and give only the class name.
Result: hi

Problem: Assign a category based on measured IC50 for `Cc1c(Sc2cccc(C(=O)O)n2)c2ccc(Cl)cc2n1C` and give only the class name.
Result: hi

Problem: Assign a category based on measured IC50 for `Cc1c(Sc2cccc(C(=O)O)n2)c2ccc(Cl)cc2n1-c1cnn(C)c1` and give only the class name.
Result: lo

Problem: Assign a category based on measured IC50 for `Cc1c(Sc2cccc(C(=O)O)c2)c2ccc(Cl)cc2n1C1CCCC1` and give only the class name.
Result: hi

Problem: Assign a category based on measured IC50 for `Cc1c(Sc2cccc(C(=O)O)c2)c2ccc(Cl)cc2n1-c1ccccc1` and give only the class name.
Result: lo

Problem: Assign a category based on measured IC50 for `Cc1c(Cc2cccc(C(=O)O)n2)c2ccc(Cl)cc2n1-c1cnn(C)c1` and give only the class name.
Result: mid

Problem: Assign a category based on measured IC50 for `Cc1c(Sc2cccc(C(=O)O)c2)c2ccc(Cl)cc2n1C` and give only the class name.
Result: mid

Problem: Assign a category based on measured IC50 for `Cc1[nH]c2cc(Cl)ccc2c1Sc1cccc(C(=O)O)c1` and give only the class name.
Result: mid

Problem: Assign a category based on measured IC50 for `Cc1c(Sc2cccc(C(=O)O)n2)c2ccc(F)cc2n1-c1ccn(C)n1` and give only the class name.
Result: hi

Problem: Assign a category based on measured IC50 for `Cc1[nH]c2cc(Cl)ccc2c1Sc1cccc(C(=O)O)n1` and give only the class name.
Result: hi

Where do the numbers come from? From ChEMBL document CHEMBL4000180.
